protocol_description: RAM pathway blockade in budding yeast – dse1pr::URA3 reporter, 5-FOA selection, pilot screen (AID 869);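 note: 0% = DMSO wells with no growth and 100% = 10 µM 1-NA-PP1 with full growth; RAM network block rescues cells from 5-FOA so hits raise OD615 growth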
details: S. cerevisiae dse1pr::URA3 5-FOA growth, OD615, 2 d; at 10 µM; hits give high values; strain carries analog-sensitive mutant Cbk1 kinase
measured_quantity: inhibition (%)
The figure you give is taken to be in %; do not add the unit.

Give me measured inhibition, please, for this molecule: `Cc1c(C(=O)NCc2cccs2)oc2ccc(S(=O)(=O)N3CCOCC3)cc12`
0.46

Give me measured inhibition, please, for this molecule: `COc1ccc(N2CCN(C(=O)CCS(=O)(=O)c3cccc4nsnc34)CC2)cc1`
0.895

Give me measured inhibition, please, for this molecule: `COc1ccccc1-n1c(CNC(=O)c2ccccc2)nnc1SCC(=O)Nc1nnc(C)s1`
1.05

Read the next record carefully.
Give me measured inhibition, please, for this molecule: `COc1ccc(OC)c(-c2cc(C(=O)N3CCN(c4ccccc4)CC3)no2)c1`
1.72

* * *

protocol_description: doxorubicin toxicity protection in MRP-1 cells – H69AR cells, CellTiter-Glo, duplicate, MRP-1 activator project, pilot screen (AID 807);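 note: compound pretreatment 18-22 h then 72 h combined with doxorubicin; 0% = doxorubicin alone and 100% = vehicle without doxorubicin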
details: H69AR viability with doxorubicin, CellTiter-Glo luminescence; at 10 µM; hits give high values
Collected viability increase values appear next to each entry.
The figure you give is taken to be in %; do not add the unit.

Examples with their reported viability increase follow.
Give me measured viability increase, please, for this compound: `Cc1ccc(-c2nc3cnccn3c2Nc2ccc3c(c2)OCCO3)o1`
-5.2

Give me measured viability increase, please, for this compound: `O=C(c1cnn2ccccc12)N1CCCc2ccccc21`
-1.74

Give me measured viability increase, please, for this compound: CCOc1ccccc1NC1c2ccccc2C(=O)N1c1ccc(C)cn1 (stereo unspecified)
-1.37

---
Give me measured viability increase, please, for this compound: `C(#Cc1ccccc1)CN1CCN(c2ccccn2)CC1`
-1.2

Give me measured viability increase, please, for this compound: COc1cc2[nH]c(=O)n(Cc3ccc(C(=O)NCC4CCCO4)cc3)c(=O)c2cc1OC (stereo unspecified)
-3.55

Give me measured viability increase, please, for this compound: `COC(=O)c1c(-c2ccc(F)cc2)csc1NC(=O)c1ccco1`
1.29

Give me measured viability increase, please, for this compound: `CCCOC(=O)c1ccc(NC(=O)CCC(=O)OCC)cc1`
-0.37

Give me measured viability increase, please, for this compound: `COc1cc(Cl)c(S(=O)(=O)N2CCN(Cc3ccc4c(c3)OCO4)CC2)cc1Cl`
-2.17

Give me measured viability increase, please, for this compound: `COc1ccc(NC(=O)c2nnn(Cc3ccc(SC)cc3)c2N)c(OC)c1`
-0.11

Give me measured viability increase, please, for this compound: `COc1ccc(-c2cc(CCCC(=O)NCc3ccccn3)no2)cc1`
-1.34

Give me measured viability increase, please, for this compound: `COc1ccc(OCCn2c(NC(=O)c3ccco3)nc3ccccc32)cc1`
-6.84

* * *

protocol_description: MRP1 drug-resistance reversers in H69AR cells – cell-based, doxorubicin co-treatment, pilot screen (AID 601)
details: H69AR cells + 2 uM doxorubicin, CellTiter-Glo, 72 h; at 10 µM; hits give high values
Collected differential viability (reversal) values appear next to each entry.
The figure you give is taken to be in %; do not add the unit.

Give me measured differential viability (reversal), please, for this compound: `COCCCNC(=O)c1c(N)n(-c2cccc(S(N)(=O)=O)c2)c2nc3ccccc3nc12`
-8.22

---
Give me measured differential viability (reversal), please, for this compound: `CCOC(=O)C1CCN(C(=O)CN(Cc2ccccc2)S(C)(=O)=O)CC1`
-1.19

Give me measured differential viability (reversal), please, for this compound: O=C1CC(C(=O)Nc2ccccc2)C2(CCCC2)O1 (stereo not given)
3.1

Give me measured differential viability (reversal), please, for this compound: Cc1ccc(NCc2nnc(SCC(=O)NCc3ccco3)n2CC2CCCO2)cc1Cl (stereo not given)
-7.28

Give me measured differential viability (reversal), please, for this compound: Cc1cc(C)cc(Nc2ncc3c(n2)CC(c2ccco2)CC3=O)c1 (stereo not given)
1

* * *

protocol_description: HUVEC growth inhibition – cell-based, human, primary screen (AID 575);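 note: 100% = median of untreated cell wells with 0.1% DMSO on each plate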
details: HUVEC proliferation, CellTiter-Glo luminescence, 72 h; at 10 µM
Calls of active or inactive are those of the source.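 The calls were made as follows: active = viability at or below 30% in both replicate assays; inconclusive = viability at or below 30% in just one of the two assays; inactive = the rest.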
Thanks in advance; please answer with one of these: active, inactive

Reference set (4 entries):
Could you please tell me the result logged for `COc1cc(NS(=O)(=O)c2cccc3nsnc23)c(C(=O)O)cc1OC` in this assay?
inactive

Could you please tell me the result logged for `Cc1ccc(NC(=O)c2ccco2)cc1NC(=O)CSc1nnc(-c2cccs2)n1C` in this assay?
inactive

Could you please tell me the result logged for `CCOC(=O)c1c(COC(=O)c2ccco2)nc2ccccc2[n+]1[O-]` in this assay?
inactive

Could you please tell me the result logged for `COc1ccc(CCNC(=O)c2nc3ncccn3n2)cc1OC` in this assay?
inactive

Now consider the entry below.
Could you please tell me the result logged for `Nc1nc(Cl)nc2c1ncn2[C@@H]1O[C@H](CO)[C@@H](O)[C@H]1O` in this assay?
active

* * *

protocol_description: doxorubicin toxicity protection in MRP-1 cells – H69AR cells, CellTiter-Glo, duplicate, MRP-1 activator project, pilot screen (AID 807);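 note: compound pretreatment 18-22 h then 72 h combined with doxorubicin; 0% = doxorubicin alone and 100% = vehicle without doxorubicin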
details: H69AR viability with doxorubicin, CellTiter-Glo luminescence; at 10 µM; hits give high values
measured_quantity: viability increase (%)
The figure you give is taken to be in %; do not add the unit.

Give me measured viability increase, please, for this compound: `O=C(Cn1c(=O)sc2ccccc21)NCc1ccccn1`
-1.78

Give me measured viability increase, please, for this compound: Cc1ccc(CNC(=O)CS(=O)Cc2nc(-c3ccccc3C)oc2C)cc1 (configuration not stated)
0.04

Give me measured viability increase, please, for this compound: CCCCOc1ccccc1C1NC(=O)NC(C)=C1C(=O)OCCOC (configuration not stated)
-2.89

Give me measured viability increase, please, for this compound: `O=C(c1cc(C2CC2)on1)N1CCN(c2ccc(F)cc2)CC1`
-1.75

Give me measured viability increase, please, for this compound: CCOC(=O)c1ccccc1NC1c2ccccc2C(=O)N1c1ccc(C)cn1 (configuration not stated)
-2.23

Give me measured viability increase, please, for this compound: `CCNC(=O)CCn1nc(-c2ccc(Cl)cc2)c2ccccc2c1=O`
-5.74

Give me measured viability increase, please, for this compound: `CCOc1ccccc1C(=O)Nc1ccc2nc(N3CCN(c4ncccn4)CC3)cc(C)c2c1`
-7.45

Give me measured viability increase, please, for this compound: `Oc1ccccc1C(=S)N1CCCCC1`
-2.83

Give me measured viability increase, please, for this compound: `O=C(O)c1ccc(CSc2nnc(COc3ccc(Cl)cc3Cl)o2)cc1`
2.94

Give me measured viability increase, please, for this compound: COc1ccc(OC)c(NC(=O)C2CCC(CNc3c(N4CCC(C)CC4)c(=O)c3=O)CC2)c1 (configuration not stated)
-4.93

* * *

Collected inhibition values appear next to each entry.
protocol_description: RAM pathway blockade in budding yeast – dse1pr::URA3 reporter, 5-FOA selection, pilot screen (AID 869);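 note: 0% = DMSO wells with no growth and 100% = 10 µM 1-NA-PP1 with full growth; RAM network block rescues cells from 5-FOA so hits raise OD615 growth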
details: S. cerevisiae dse1pr::URA3 5-FOA growth, OD615, 2 d; at 10 µM; hits give high values; strain carries analog-sensitive mutant Cbk1 kinase
The figure you give is taken to be in %; do not add the unit.

Examples with their reported inhibition follow.
Give me measured inhibition, please, for this molecule: `CCN1CCN(CC(=O)Nc2ccc(Cl)c(Cl)c2)C(=O)C1=O`
0.63

Give me measured inhibition, please, for this molecule: O=C(CCCCn1c(=O)[nH]c2ccsc2c1=O)NCC1CCCO1 (stereo not given)
1.61

Give me measured inhibition, please, for this molecule: `CN(C)c1ccc(CN(C)C2CCCCC2)cc1`
1.46

Give me measured inhibition, please, for this molecule: `COc1ccc(-c2n[nH]c(C)c2-c2cnn(-c3ccccc3)c2)c(O)c1`
-0.205

Give me measured inhibition, please, for this molecule: COc1ccc(OC)c(NC(=O)C2CCC(CNc3c(N4CCC(C)CC4)c(=O)c3=O)CC2)c1 (stereo not given)
0.96

Give me measured inhibition, please, for this molecule: `Cc1cc(NC(=O)c2noc3c2CCc2ccccc2-3)n(-c2ccccc2)n1`
2.88

Give me measured inhibition, please, for this molecule: `O=C(O)c1ccc(CSc2nnc(COc3ccc(Cl)cc3Cl)o2)cc1`
1.22

Give me measured inhibition, please, for this molecule: `O=C(Cn1cc2c(n1)CCCC2)NCc1ccccn1`
0.72

Give me measured inhibition, please, for this molecule: `COc1ccc(OC)c(NC(=O)CN(c2ccc(C(C)C)cc2)S(=O)(=O)c2c(C)noc2C)c1`
2.27

Read the next record carefully.
Give me measured inhibition, please, for this molecule: Cc1cccc(N2CCN(C(=O)c3cc4c(=O)n(C)c5ccccc5c4n3C)CC2C)c1 (stereo not given)
1.81
